- ASSAY SYSTEM: Tau-RD3 (Tau repeat domain 3) (Homo sapiens, UniProt P10636)
- Sequence (P10636 623-653 limits assumed): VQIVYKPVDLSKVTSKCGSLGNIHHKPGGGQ
- EXPERIMENT NOTES: Tau disaggregation test by Thioflavin-T analysis
- Assay type: biochemical
- MEASUREMENT PARAMETERS: Tau-RD3 35 µM aggregated 24 hours, then compound 0 - 500 µM for 48 hours at 37 °C; concentration disaggregating 50 % of aggregates vs control; read-out: EC50 (µM) Tau
Listed here: items and their measured EC50.
VALUE TYPE: EC50

>>> result("Cc1ncsc1C1=C(c2scnc2C)c2ccc(OCCCc3ccccc3)cc2C1=O [Compound 77]")
"< 20 µM"
>>> result("O=C1C(c2ccccc2)=C(Br)c2ccccc21 [Compound 5-4, 3-bromo-2-phenyl-1H-inden-1-one]")
"< 20 µM"
>>> result("Cc1ncsc1C1=C(c2cccnc2)C(=O)c2cc(NCC3CCOCC3)ccc21 [Compound 52]")
"> 250 µM"
>>> result("CC(C)(C)c1cc(C2=C(c3ccccc3)C(=O)c3ccccc32)cc(C(C)(C)C)c1 [Compound 96]")
"> 250 µM"
>>> result("CN1CCN(c2ccc(C3=C(c4ccccc4)C(=O)c4ccccc43)cc2)CC1 [Compound 94]")
"20 to 100 µM"
>>> result("O=C1C(c2ccc(N3CCOCC3)cc2)=C(c2ccccc2)c2ccccc21 [Compound 17]")
"> 250 µM"
>>> result("Cc1ncsc1C1=C(c2cccnc2)C(=O)c2cc(N(C)C)ccc21 [Compound 62]")
"> 250 µM"

###

- ASSAY SYSTEM: Aβ1-42 (Homo sapiens, UniProt P05067)
- Construct: dissolving Aβ1-42 or Tau-RD3 (Tau repeat domain 3) monomers in DMSO
- Sequence (P05067 672-713 limits assumed): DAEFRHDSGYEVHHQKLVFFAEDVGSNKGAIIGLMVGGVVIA
- EXPERIMENT NOTES: Amyloid-beta disaggregation test by Thioflavin-T analysis
- Assay type: biochemical
- MEASUREMENT PARAMETERS: Aβ1-42 50 µM aggregated 24 hours, then compound 0 - 500 µM for 48 hours at 37 °C; concentration disaggregating 50 % of aggregates vs control; read-out: EC50 (µM) Aβ
Listed here: items and their measured EC50.
VALUE TYPE: EC50

>>> result("Cc1ccccc1C1=C(c2ccccc2)c2ccccc2C1=O")
"20 to 100 µM"
>>> result("Nc1ccc2c(c1)C(=O)C(c1ccccc1)=C2c1ccccc1")
"> 250 µM"
>>> result("Cc1ncsc1C1=C(c2ccc(CN3CCOCC3)cc2)C(=O)c2ccccc21")
"< 20 µM"

###

- ASSAY SYSTEM: Aβ1-42 (Homo sapiens, UniProt P05067)
- Construct: dissolving Aβ1-42 or Tau-RD3 (Tau repeat domain 3) monomers in DMSO
- EXPERIMENT NOTES: Amyloid-beta disaggregation test by Thioflavin-T analysis
- Assay type: biochemical
- MEASUREMENT PARAMETERS: Aβ1-42 50 µM aggregated 24 hours, then compound 0 - 500 µM for 48 hours at 37 °C; concentration disaggregating 50 % of aggregates vs control; read-out: EC50 (µM) Aβ
VALUE TYPE: EC50

>>> result("Cc1ccccc1C1=C(c2c(C)cccc2C)c2ccc(O)cc2C1=O")
"< 20 µM"
>>> result("Cc1ccccc1C1=C(c2ccccc2C)c2ccc(O)cc2C1=O [Compound 82, 6-hydroxy-2,3-di-o-tolyl-1H-inden-1-one]")
"< 20 µM"
>>> result("Cn1cc(C2=C(c3cccnc3)C(=O)c3cc(OCCCc4ccccc4)ccc32)cn1")
"> 250 µM"
>>> result("Cc1cccc(C)c1C1=C(c2ccccc2)C(=O)c2cc(N3CCN(C)CC3)ccc21")
"< 20 µM"
>>> result("O=C1C(c2ccccc2)=C(c2ccc(N3CCOCC3)cc2)c2ccccc21")
"< 20 µM"
>>> result("Cc1ncsc1C1=C(c2cccnc2)C(=O)c2cc(O)ccc21")
"20 to 100 µM"
>>> result("Cc1ncsc1C1=C(c2ccccn2)C(=O)c2cc(OCCCc3ccccc3)ccc21")
"< 20 µM"
>>> result("Cc1ncsc1C1=C(c2cnccn2)C(=O)c2cc(O)ccc21")
"> 250 µM"
>>> result("O=C1C(Br)=C(c2ccccc2)c2ccccc21")
"20 to 100 µM"
>>> result("Cc1ncsc1C1=C(c2cnn(C)c2)C(=O)c2cc(OCCCc3ccccc3)ccc21")
"< 20 µM"
>>> result("Cc1ncsc1C1=C(c2cnccn2)C(=O)c2cc(OCCCc3ccccc3)ccc21")
"< 20 µM"
>>> result("Cc1ncsc1C1=C(c2ccccn2)C(=O)c2cc(O)ccc21")
"> 250 µM"
>>> result("Cc1ncsc1C1=C(c2cccnc2)C(=O)c2cc(N(C)CCCc3ccccc3)ccc21")
"< 20 µM"
>>> result("CN1CCN(c2cccc(C3=C(c4ccccc4)c4ccccc4C3=O)c2)CC1")
"< 20 µM"
>>> result("O=C1C(c2ccc(N3CCOCC3)cc2)=C(c2ccccc2)c2ccccc21")
"< 20 µM"
>>> result("Cc1ncsc1C1=C(c2cccnc2)C(=O)c2cc(SCCCc3ccccc3)ccc21")
"< 20 µM"
>>> result("O=C1C(N2CCOCC2)=C(c2ccccc2)c2ccccc21")
"100 to 250 µM"
>>> result("O=C1C(c2ccccc2)=C(c2cccnc2)c2ccccc21")
"20 to 100 µM"
>>> result("Cc1ncsc1C1=C(c2cc[nH]n2)C(=O)c2cc(OCCCc3ccccc3)ccc21")
"< 20 µM"

###

- ASSAY SYSTEM: Tau-RD3 (Tau repeat domain 3) (Homo sapiens, UniProt P10636)
- EXPERIMENT NOTES: Tau disaggregation test by Thioflavin-T analysis
- Type: biochemical
- MEASUREMENT PARAMETERS: Tau-RD3 35 µM aggregated 24 hours, then compound 0 - 500 µM for 48 hours at 37 °C; concentration disaggregating 50 % of aggregates vs control; read-out: EC50 (µM) Tau
Listed here: items and their measured EC50.
VALUE TYPE: EC50

>>> result("COc1ccc2c(c1)C(=O)C(c1ccccc1)=C2c1ccccc1")
"> 250 µM"
>>> result("COc1ccc2c(c1)C(=O)C(c1cncs1)=C2c1cncs1")
"20 to 100 µM"
>>> result("COCCNc1ccc2c(c1)C(=O)C(c1cccnc1)=C2c1scnc1C")
"> 250 µM"
>>> result("CCOC(=O)c1ccccc1C1=C(c2ccccc2C)c2ccccc2C1=O")
"> 250 µM"
>>> result("COc1cccc(OC)c1C1=C(c2cccnc2)C(=O)c2cc(OCCCc3ccccc3)ccc21")
"100 to 250 µM"
>>> result("CN1CCN(c2ccc(C3=C(c4ccccc4)c4ccccc4C3=O)cc2)CC1")
"< 20 µM"
